These measurements were taken from patent US20240352105A1.

# target or test system: T1, recombinant His-tagged Can f1 (dog (Canis familiaris), UniProt O18873 19-174)
# T1 construct: also called Can f1-His; recombinant Can f1; not shown: His tag
# T1 sequence (O18873 19-174 limits assumed): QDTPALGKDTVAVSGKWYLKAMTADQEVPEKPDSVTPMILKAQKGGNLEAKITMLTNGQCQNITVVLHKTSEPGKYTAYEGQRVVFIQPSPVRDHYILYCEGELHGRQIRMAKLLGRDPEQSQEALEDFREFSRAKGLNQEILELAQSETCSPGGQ
# experiment: ELISA, antigen coated
experimental readout: EC50 (µg/mL)
The reply should be a number in µg/mL, with the unit left off.

### Prompt Find the recorded EC50 belonging to SDAB22112-1-D12 (VHH, anti-Can f1 alpaca VHH) VHH: AVQLVDSGGGLVQAGGSLRLACAASGRTFDTYAVGWFRQAPGKERDVVASITWTSGSTWYADFVKGRFTISKDNAKNTVYLQMNNLSPEDTAVYYCGARNQIYTRWDSWGQGTQVTVSS and report it.
### Response 4.01

### Prompt For SDAB22112-2-B06 (VHH, anti-Can f1 alpaca VHH) VHH: QVQLVESGGGLVQPGGSLRLSCAASGFTFRLAAMGWYRQAPEKEREWVASITGPGTDTNYADSVKGRFTVSRDNAKNTVYLQMNSLKPEDTAVYYCRGMGYWGKGTLVTVSS then?
### Response 0.144
